Data provenance is ChEMBL document CHEMBL1156039.

- Tgt: UniProt Q9UKP6
- Sequence (Q9UKP6 whole entry): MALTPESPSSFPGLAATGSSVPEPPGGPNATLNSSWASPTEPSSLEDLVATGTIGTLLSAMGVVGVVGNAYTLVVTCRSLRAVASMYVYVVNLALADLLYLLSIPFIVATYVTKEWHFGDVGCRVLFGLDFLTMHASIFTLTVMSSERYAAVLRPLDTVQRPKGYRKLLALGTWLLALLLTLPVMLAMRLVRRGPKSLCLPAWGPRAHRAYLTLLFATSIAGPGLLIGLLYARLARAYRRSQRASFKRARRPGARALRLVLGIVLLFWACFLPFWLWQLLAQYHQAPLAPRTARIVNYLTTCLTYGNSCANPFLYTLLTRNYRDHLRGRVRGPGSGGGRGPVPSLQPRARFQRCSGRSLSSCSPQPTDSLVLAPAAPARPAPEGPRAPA
- Assay: Antagonist activity at urotensin 2 receptor in human RMS13 cells assessed as inhibition of urotensin 2-induced intracellular calcium mobilization after 1 hr by FLIPR assay
For each record, write down the corresponding IC50.
One number for each entry, in nM.

Molecule	IC50 / nM
CCN1CCN(c2cccc3c2CN([C@H](CCCNC(=O)c2cccs2)c2ccc(OC)c(OC)c2)C3=O)CC1	140

Please look at the items below and tell me IC50 for each one, in order.
1. CCN1CCN(c2cccc3c2CN([C@H](CCCNc2cncc(Cl)n2)c2ccc(OC)c(OC)c2)C3=O)CC1
2. COc1ccc(C(CCCNS(=O)(=O)c2cccs2)N2C(=O)c3cccc(N4CCN([C@H](C)c5ccccc5)CC4)c3C2=O)cc1OC (stereo partly drawn)

a:
500
250

----------
- Tgt: Urotensin-2 receptor (Rattus norvegicus, UniProt P49684)
- Sequence (P49684 whole entry): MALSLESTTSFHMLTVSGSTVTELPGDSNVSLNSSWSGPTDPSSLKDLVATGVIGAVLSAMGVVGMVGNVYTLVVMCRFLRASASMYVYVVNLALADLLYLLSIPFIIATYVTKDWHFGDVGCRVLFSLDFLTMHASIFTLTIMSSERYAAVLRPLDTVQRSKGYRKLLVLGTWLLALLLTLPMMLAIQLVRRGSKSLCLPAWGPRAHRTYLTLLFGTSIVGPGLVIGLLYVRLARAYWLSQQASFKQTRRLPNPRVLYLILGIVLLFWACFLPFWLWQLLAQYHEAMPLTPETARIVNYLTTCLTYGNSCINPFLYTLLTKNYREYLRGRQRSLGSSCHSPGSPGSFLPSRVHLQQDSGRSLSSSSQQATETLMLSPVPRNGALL
- Assay: Antagonist activity at rat urotensin 2 receptor expressed in CHOK1 cells assessed as inhibition of urotensin 2-induced intracellular calcium mobilization after 10 min by FLIPR assay
Record form. Attribute: IC50. Fill in for each entry.
Give bare numbers, in nM.

Field: example entries. Status: answers known.
Compound	IC50, nM
COc1ccc(CN2C(=O)c3cccc(N4CCN(Cc5c(F)cccc5F)CC4)c3C2=O)cc1OC	1000
COc1ccc(C(CNC(=O)OC(C)(C)C)N2C(=O)c3cccc(N4CCN([C@@H](C)c5ccccc5)CC4)c3C2=O)cc1OC (stereo not given in full)	120
COc1ccc(C(CCNC(=O)OC(C)(C)C)N2C(=O)c3cccc(N4CCN([C@@H](C)c5ccccc5)CC4)c3C2=O)cc1OC (stereo not given in full)	110
CCN1CCN(c2cccc3c2CN([C@H](CCCNc2cncc(Cl)n2)c2ccc(OC)c(OC)c2)C3=O)CC1	1

q: What value of IC50 has been recorded for this entry: "COc1ccc([C@@H](CCCNS(C)(=O)=O)N2C(=O)c3cccc(N4CCN([C@H](C)c5ccccc5)CC4)c3C2=O)cc1OC"
a: 110
